As shown below, each of these compounds has a reported IC50 value.
- System: A549
- assay: Antiproliferative activity against human A549 cells after 3 days by MTT assay
- Type: functional, cell-based
- run conditions: A549, 72 h
property name: IC50 (nM)

| smiles code | system | measured result |
| --- | --- | --- |
| CCOCCO[C@@H]1OCc2c(cc3n(c2=O)Cc2cc4cc(OC)ccc4nc2-3)[C@@]1(O)CC | A549 | 838 |
| CC[C@]1(O)c2cc3n(c(=O)c2CO[C@H]1OCC(C)C)Cc1cc2ccccc2nc1-3 | A549 | 394 |
| CC[C@]1(O)c2cc3n(c(=O)c2CO[C@H]1OCCF)Cc1cc2ccccc2nc1-3 | A549 | 6310 |
| CCCCc1c2c(nc3ccccc13)-c1cc3c(c(=O)n1C2)CO[C@@H](OCCOCC)[C@]3(O)CC | A549 | 598 |

----------
- Tested on: A549
- assay: Antiproliferative activity against human A549 cells after 3 days by MTT assay
- Assay type: functional, cell-based
- run conditions: A549, 72 h
The label criterion met is reserved for IC50 strictly under 3000 nM; criterion not met covers values equal to or above it.

| compound | group |
| --- | --- |
| CC[C@]1(O)c2cc3n(c(=O)c2CO[C@H]1OCCOC)Cc1cc2ccccc2nc1-3 | criterion not met |
| CC[C@]1(O)c2cc3n(c(=O)c2CO[C@H]1OCC(F)(F)C(F)(F)F)Cc1cc2ccccc2nc1-3 | criterion met |
| CCCCCO[C@@H]1OCc2c(cc3n(c2=O)Cc2cc4ccccc4nc2-3)[C@@]1(O)CC | criterion met |
| CCCCO[C@@H]1OCc2c(cc3n(c2=O)Cc2cc4ccccc4nc2-3)[C@@]1(O)CC | criterion not met |
| CC[C@@]1(O)C(=O)OCc2c1cc1n(c2=O)Cc2cc3ccccc3nc2-1 | criterion met |
| CC[C@]1(O)c2cc3n(c(=O)c2CO[C@H]1OC(=O)CCC(=O)O)Cc1cc2ccccc2nc1-3 | criterion met |
| CCC(C)O[C@@H]1OCc2c(cc3n(c2=O)Cc2cc4ccccc4nc2-3)[C@@]1(O)CC (stereo partly drawn) | criterion not met |
| CCOCCO[C@@H]1OCc2c(cc3n(c2=O)Cc2cc4ccccc4nc2-3)[C@@]1(O)CC | criterion met |
| CCOCCO[C@@H]1OCc2c(cc3n(c2=O)Cc2cc4c([N+](=O)[O-])cccc4nc2-3)[C@@]1(O)CC | criterion not met |
| CC[C@]1(O)c2cc3n(c(=O)c2CO[C@H]1OC)Cc1cc2ccccc2nc1-3 | criterion met |
| CC[C@]1(O)c2cc3n(c(=O)c2CO[C@H]1OCC(F)(F)F)Cc1cc2ccccc2nc1-3 | criterion not met |
| CC[C@]1(O)c2cc3n(c(=O)c2CO[C@H]1OC(C)COC)Cc1cc2ccccc2nc1-3 (stereo partly drawn) | criterion not met |
| CCO[C@@H]1OCc2c(cc3n(c2=O)Cc2cc4ccccc4nc2-3)[C@@]1(O)CC | criterion met |
| CC[C@]1(O)c2cc3n(c(=O)c2CO[C@H]1OC(C)C)Cc1cc2ccccc2nc1-3 | criterion not met |
| CC[C@]1(O)c2cc3n(c(=O)c2CO[C@@H]1OC)Cc1cc2ccccc2nc1-3 | criterion not met |
| CCOCC(C)O[C@@H]1OCc2c(cc3n(c2=O)Cc2cc4ccccc4nc2-3)[C@@]1(O)CC (stereo partly drawn) | criterion not met |
| CCCO[C@@H]1OCc2c(cc3n(c2=O)Cc2cc4ccccc4nc2-3)[C@@]1(O)CC | criterion met |
| CC[C@@]1(O)C(=O)OCc2c1cc1n(c2=O)Cc2cc3c(CN(C)C)c(O)ccc3nc2-1 | criterion met |
